# System: LOC_OS04G35114-cb001
# test-description: thermal shift delta Tm vs DMSO control; higher = stronger stabilization (binding);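 also: purified Escherichia coli-expressed rice kinase domain construct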
# conditions: 12.5 µM; protein concentration 2 µM
result-type: thermal shift delta Tm (°C)
Give just the numeric value; °C need not be written.

Recorded thermal shift delta Tm (compound "CCS(=O)(=O)N1CCN(c2ccc(Nc3ncc(C(N)=O)c(NC4CC4)n3)cc2)CC1" ): 6.29

Recorded thermal shift delta Tm (compound "Cc1c(C(=O)Nc2ccc(Oc3ccnc4[nH]cc(-c5ccccc5)c34)c(F)c2)c(=O)n(-c2ccc(F)cc2)n1C" ): 5.04

Recorded thermal shift delta Tm (compound "C[C@@H]1CN(C(=O)c2ccc(NC(=O)c3cc(O[C@H](C)c4c(Cl)ccc(F)c4Cl)c(N)nn3)cc2)C[C@H](C)N1" ): 8.12

Recorded thermal shift delta Tm (compound "Cn1c(=O)c(Oc2ccc(F)cc2F)cc2cnc(NC(CCO)CCO)nc21" ): 0.71

Recorded thermal shift delta Tm (compound "CC(C)(C)c1nc(-c2cccc(NS(=O)(=O)c3c(F)cccc3F)c2F)c(-c2ccnc(N)n2)s1" ): 2.09

Recorded thermal shift delta Tm (compound "Cc1ccc(NC(=O)c2ccc(CN3CCN(C)CC3)cc2)cc1Nc1nc(-c2cccnc2)cs1" ): 0.04

====

Listed molecules paired with reported thermal shift delta Tm
# System: LOC_OS01G70970-cb002
# test-description: thermal shift delta Tm vs DMSO control; higher = stronger stabilization (binding)
# conditions: 12.5 µM; protein concentration 2 µM
Reply with a number, then the unit it belongs to.

Solved cases (3 shown):
Cc1cc(Nc2ncc(Cl)c(Nc3ccccc3S(=O)(=O)C(C)C)n2)c(OC(C)C)cc1C1CCNCC1    0.94 °C
NC(=O)Nc1cc(-c2cccc(F)c2)sc1C(=O)N[C@H]1CCCNC1    1.89 °C
Cc1ccc(-n2nc(C(C)(C)C)cc2NC(=O)Nc2ccc(OCCN3CCOCC3)c3ccccc23)cc1    0.56 °C

Recorded thermal shift delta Tm (molecule CO[C@H]1C[C@@H]2CC[C@@H](C)[C@@](O)(O2)C(=O)C(=O)N2CCCC[C@H]2C(=O)O[C@H]([C@H](C)C[C@@H]2CC[C@@H](O)[C@H](OC)C2)CC(=O)[C@H](C)/C=C(\C)[C@@H](O)[C@@H](OC)C(=O)[C@H](C)C[C@H](C)/C=C/C=C/C=C/1C [Rapamycin (Sirolimus)] ): 0.17 °C

Recorded thermal shift delta Tm (molecule "CC(C)NC[C@@H](C(=O)N1CCN(c2ncnc3c2[C@H](C)C[C@H]3O)CC1)c1ccc(Cl)cc1" ): 0.4 °C

====

# Tested on: LOC_OS01G13800-cb001
# test-description: thermal shift delta Tm vs DMSO control; higher = stronger stabilization (binding)
# conditions: 12.5 µM; protein concentration 2 µM
result-type: thermal shift delta Tm (°C)
Give just the numeric value; °C need not be written.

N#Cc1ccc2[nH]c(O)c(-c3ccc(CN4CCOCC4)cn3)c2c1    -0.53
COc1cc2c(cc1OC)[C@@H]1C(=O)c3ccc4c(c3O[C@@H]1CO2)C=CC(C)(C)O4    0.41
CC(C)c1ccc2oc3nc(N)c(C(=O)O)cc3c(=O)c2c1    -0.62
CC1Oc2cc(cnc2N)-c2c(nn(C)c2C#N)CN(C)C(=O)c2ccc(F)cc21 (stereo not given)    -0.23

Recorded thermal shift delta Tm (molecule "Cc1c[nH]c(/C=C2\C(=O)Nc3ccccc32)c1CCC(=O)O" ): 0

Recorded thermal shift delta Tm (molecule "O=C1NC(=O)/C(=C/c2cccc(C(F)(F)F)c2)S1" ): 0.24

Recorded thermal shift delta Tm (molecule "O=C(O)CCC(=O)Nc1ccc(Br)cn1" ): 0.21

Recorded thermal shift delta Tm (molecule "CC(=O)c1c(C)c2cnc(Nc3ccc(N4CCNCC4)cn3)nc2n(C2CCCC2)c1=O" ): -0.38

Recorded thermal shift delta Tm (molecule "NC(=O)Nc1cc(-c2cccc(F)c2)sc1C(=O)N[C@H]1CCCNC1" ): 0.24

====

Listed molecules paired with reported thermal shift delta Tm
# Tested on: LOC_OS03G12390-cb001
# test-description: thermal shift delta Tm vs DMSO control; higher = stronger stabilization (binding)
# conditions: 12.5 µM; protein concentration 2 µM
Give just the numeric value; °C need not be written.

CN(C)S(=O)(=O)c1ccc2c(c1)/C(=C/c1cc3c([nH]1)CCCC3)C(=O)N2    0.26

Recorded thermal shift delta Tm (molecule CCC[C@H](NC(=O)/C(C#N)=C/c1cccc(Br)n1)c1ccccc1 [Degrasyn (WP1130)] ): -5.26

Recorded thermal shift delta Tm (molecule COc1cc(Nc2ncc(F)c(Nc3ccc4c(n3)N(COP(=O)(O)O)C(=O)C(C)(C)O4)n2)cc(OC)c1OC [R788 (Fostamatinib) Disodium] ): 1.17

Recorded thermal shift delta Tm (molecule "Nc1nc2cc(-c3ccc4ncc(C(=O)N5CCOCC5)n4c3)ccc2o1" ): 0.22

====

Listed compounds paired with reported thermal shift delta Tm
# Tested on: LOC_OS01G52050-cb004
# test-description: thermal shift delta Tm vs DMSO control; higher = stronger stabilization (binding)
# conditions: 12.5 µM; protein concentration 2 µM
Give just the numeric value; °C need not be written.

CC1=C(C(=O)Nc2ccc3[nH]ncc3c2)C(c2ccc(F)cc2)NC(=O)N1 (configuration not stated)    4.76

Recorded thermal shift delta Tm (compound "C[C@@]1(C(=O)Nc2ccc(F)nc2)CCCN1c1nc(Nc2cc(C3CC3)n[nH]2)c2cccn2n1" ): 0.49

====

# System: LOC_OS03G04050-cb001
# test-description: thermal shift delta Tm vs DMSO control; higher = stronger stabilization (binding)
# conditions: 12.5 µM; protein concentration 2 µM
Classification field: fulfilled = thermal shift delta Tm at or over 0.2 °C; not fulfilled = thermal shift delta Tm under 0.2 °C.

Below, 5 compounds whose answers are already recorded.
CC(C)CCN1c2nc(Nc3cc(F)c(O)c(F)c3)ncc2N(C)C(=O)C1C (configuration not stated)    fulfilled
C[C@H](NC(=O)/C(C#N)=C/c1cccc(Br)n1)c1ccccc1    not fulfilled
CS(=O)(=O)CCNCc1ccc(-c2ccc3ncnc(Nc4ccc(OCc5cccc(F)c5)c(Cl)c4)c3c2)o1 [Lapatinib]    fulfilled
CCn1c2ccccc2c2cc(Nc3ccnc(NCCCN4CCOCC4)n3)ccc21    not fulfilled
CC(C)(O)CNc1ncc(-c2ccnc(Nc3ccnc(Cl)c3)n2)c(CC2CC2)n1    not fulfilled

INPUT: Hi, just wondering whether "O=C(NOCC1CC1)c1ccc(F)c(F)c1Nc1ccc(I)cc1Cl" shows thermal shift delta Tm of 0.2 °C or higher.
OUTPUT: fulfilled

INPUT: Hi, just wondering whether "C=CC(=O)Nc1cccc(C)c1Nc1ncc2cc(-c3c(Cl)c(OC)cc(OC)c3Cl)ccc2n1" shows thermal shift delta Tm of 0.2 °C or higher.
OUTPUT: fulfilled

====

# Tested on: LOC_OS01G52050-cb004
# Sequence (whole entry): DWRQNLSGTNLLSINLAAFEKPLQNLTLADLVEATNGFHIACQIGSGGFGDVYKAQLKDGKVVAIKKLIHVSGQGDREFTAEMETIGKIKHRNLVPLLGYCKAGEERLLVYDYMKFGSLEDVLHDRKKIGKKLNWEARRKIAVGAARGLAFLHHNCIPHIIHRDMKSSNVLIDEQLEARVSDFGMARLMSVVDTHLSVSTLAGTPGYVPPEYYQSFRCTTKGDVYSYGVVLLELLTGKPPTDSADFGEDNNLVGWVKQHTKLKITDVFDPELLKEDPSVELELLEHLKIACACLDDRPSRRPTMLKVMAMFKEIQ
# test-description: thermal shift delta Tm vs DMSO control; higher = stronger stabilization (binding)
# conditions: 12.5 µM; protein concentration 2 µM
Counter-ions that a name gives are not always drawn.
Category key, based on recorded thermal shift delta Tm: low interval: < 0.2 °C; middle interval: ≥ 0.2 °C and < 3 °C; high interval: ≥ 3 °C

Cc1nc(-c2cn3c(n2)-c2ccc(-c4cnn(C(C)(C)C(N)=O)c4)cc2OCC3)n(C(C)C)n1    low interval

INPUT: Lab note: which band did "O=C(NOCCO)c1ccc2cncn2c1Nc1ccc(I)cc1F" land in?
OUTPUT: middle interval

INPUT: Lab note: which band did "O=C(Nc1c[nH]nc1-c1nc2ccc(CN3CCOCC3)cc2[nH]1)NC1CC1" land in?
OUTPUT: high interval

INPUT: Lab note: which band did "O=c1[nH]nc(Sc2ncc([N+](=O)[O-])s2)n1-c1ccc2c(c1)OCCO2" land in?
OUTPUT: low interval

INPUT: Lab note: which band did CN1CCN(c2ccc3nc(-c4c(N)c5c(F)cccc5[nH]c4=O)[nH]c3c2)CC1 [Dovitinib (TKI258) Lactate] land in?
OUTPUT: high interval

INPUT: Lab note: which band did "Cc1c(NC(=O)OC[C@@H]2COCCN2)cn2ncnc(Nc3ccc4c(cnn4Cc4cccc(F)c4)c3)c12" land in?
OUTPUT: middle interval

INPUT: Lab note: which band did "Oc1cc(O)cc(/C=C/c2ccc(O)c(O)c2)c1" land in?
OUTPUT: middle interval

INPUT: Lab note: which band did Cc1ccc(NC(=O)c2ccc(CN3CCN(C)CC3)cc2)cc1Nc1nccc(-c2cccnc2)n1 [Imatinib Mesylate (STI571)] land in?
OUTPUT: low interval

INPUT: Lab note: which band did "CC(C)n1nc(-c2ccc3oc(N)nc3c2)c2c(N)ncnc21" land in?
OUTPUT: middle interval

INPUT: Lab note: which band did "O=C(O)c1ccc2c(c1)nc(Nc1cccc(Cl)c1)c1ccncc12" land in?
OUTPUT: middle interval

INPUT: Lab note: which band did "Cc1ccc(Nc2cc(N[C@@H]3CCCC[C@@H]3N)nnc2C(N)=O)nc1C" land in?
OUTPUT: high interval
